Test: chemical genetic growth profiling, strain panel (AID 1159580);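 further: tested at 20 µM; growth read once vehicle control cultures reached saturation at 30 °C; 1 = growth at the plate median or of vehicle wells; lower values mean less growth of the strain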
Conditions: S. cerevisiae deletion strains, growth OD, locus YJL115W, strain asf1, stronger effect = lower value
Among all 5,500 compounds or so, about 2,000 (36%) were called active. Inconclusive results (about 18%) are left out. This is one part of the list.
metricName: normalized growth
Give the figure by itself; no unit, no explanation.

The recorded normalized growth for "O=c1c(-c2ccccc2)coc2cc(O)cc(O)c12" is 1.02

The recorded normalized growth for "COc1ccc(-c2cc(=O)c3c(O)c(OC)c(OC)c(OC)c3o2)cc1" is 0.979

The recorded normalized growth for "COc1ccc(-c2coc3cc(OC(C)=O)cc(OC(C)=O)c3c2=O)cc1" is 0.914
